Hi there, I'd appreciate the recorded % Inh for every entry that follows.
System: NMDA receptor
Type: binding, rat
I only need the number, in %, no unit after it.

Request: Could you share what % Inh was measured for CC[C@H](C)[C@H](NC(=O)[C@H](CC(C)C)NC(=O)[C@@H](CCC(=O)O)NC(=O)[C@H](CCC(N)=O)NC(=O)[C@H](CC(N)=O)NC(=O)[C@@H](CCC(=O)O)NC(=O)[C@H](CCC(N)=O)NC(=O)[C@H](CC(C)C)NC(=O)[C@@H](CCC(=O)O)NC(=O)[C@@H](CCC(=O)O)NC(=O)[C@@H](CCC(=O)O)NC(=O)CN)C(=O)N[C@@H](CCCNC(=N)N)C(=O)N[C@H](CCC(=O)O)C(=O)N[C@@H](CCCCN)C(=O)N[C@@H](CO)C(=O)N[C@@H](CC(N)=O)C(N)=O , tested on NMDA receptor?
Result: 0

Request: Could you share what % Inh was measured for NCCCNCCCCNCCCN [Spermine, reference compound] , tested on NMDA receptor?
Result: 0

Request: Could you share what % Inh was measured for CC[C@H](C)[C@H](N)C(=O)N[C@@H](CCCNC(=N)N)C(=O)N[C@@H](CCC(=O)O)C(=O)N[C@@H](CCCCN)C(=O)N[C@@H](CO)C(=O)N[C@@H](CC(N)=O)C(N)=O , tested on NMDA receptor?
Result: 0

Request: Could you share what % Inh was measured for NCCCCNCCCN [Spermidine, reference compound] , tested on NMDA receptor?
Result: 0

Request: Could you share what % Inh was measured for CC[C@H](C)[C@H](NC(=O)[C@H](CC(C)C)NC(=O)[C@H](CO)NC(=O)[C@H](CCC(N)=O)NC(=O)[C@H](CC(N)=O)NC(=O)[C@H](CC(C(=O)O)C(=O)O)NC(=O)[C@H](CCC(N)=O)NC(=O)[C@H](CC(C)C)NC(=O)[C@H](CC(C(=O)O)C(=O)O)NC(=O)[C@H](CC(C(=O)O)C(=O)O)NC(=O)[C@H](CCC(=O)O)NC(=O)CN)C(=O)N[C@@H](CCCNC(=N)N)C(=O)N[C@@H](CC(C(=O)O)C(=O)O)C(=O)N[C@@H](CCCCN)C(=O)N[C@@H](CO)C(=O)N[C@@H](CC(N)=O)C(N)=O , tested on NMDA receptor?
Result: 100

Request: Could you share what % Inh was measured for CC[C@H](C)[C@H](NC(=O)[C@H](CC(C)C)NC(=O)[C@H](CCC(=O)O)NC(=O)[C@H](CCC(N)=O)NC(=O)[C@H](CC(N)=O)NC(=O)[C@H](CCC(=O)O)NC(=O)[C@H](CCC(N)=O)NC(=O)[C@H](CC(C)C)NC(=O)[C@H](CCC(=O)O)NC(=O)[C@H](CCC(=O)O)NC(=O)[C@H](CCC(=O)O)NC(=O)CNC(=O)[C@@H](N)Cc1ccc(O)cc1)C(=O)N[C@@H](CCCNC(=N)N)C(=O)N[C@@H](CCC(=O)O)C(=O)N[C@@H](CCCCN)C(=O)N[C@@H](CO)C(=O)N[C@@H](CC(N)=O)C(N)=O , tested on NMDA receptor?
Result: 0

----------
Tested on: NMDA receptor
Assay type: binding, rat
Hi there, I'd appreciate the recorded % Inh for every entry that follows.
# include the unit after the value

Request: Could you share what % Inh was measured for CC[C@H](C)[C@H](NC(=O)[C@H](CC(C)C)NC(=O)[C@H](CCC(=O)O)NC(=O)[C@H](CCC(N)=O)NC(=O)[C@H](CC(N)=O)NC(=O)[C@H](CCC(=O)O)NC(=O)[C@H](CCC(N)=O)NC(=O)[C@H](CC(C)C)NC(=O)[C@H](CCC(=O)O)NC(=O)[C@H](CCC(=O)O)NC(=O)[C@H](CCC(=O)O)NC(=O)CN)C(=O)N[C@@H](CCCNC(=N)N)C(=O)N[C@@H](CCC(=O)O)C(=O)N[C@@H](CCCCN)C(=O)N[C@@H](CO)C(=O)N[C@@H](CC(N)=O)C(N)=O , tested on NMDA receptor?
Result: 22%

Request: Could you share what % Inh was measured for CC[C@H](C)[C@H](NC(=O)[C@H](CC(C)C)NC(=O)[C@H](C)NC(=O)[C@H](CCC(N)=O)NC(=O)[C@H](CC(N)=O)NC(=O)[C@H](CC(C(=O)O)C(=O)O)NC(=O)[C@H](CCC(N)=O)NC(=O)[C@H](CC(C)C)NC(=O)[C@H](CC(C(=O)O)C(=O)O)NC(=O)[C@H](CC(C(=O)O)C(=O)O)NC(=O)[C@H](CCC(=O)O)NC(=O)CN)C(=O)N[C@@H](CCCNC(=N)N)C(=O)N[C@@H](CC(C(=O)O)C(=O)O)C(=O)N[C@@H](CCCCN)C(=O)N[C@@H](CO)C(=O)N[C@@H](CC(N)=O)C(N)=O , tested on NMDA receptor?
Result: 100%
